The measured values listed here are drawn from the Human Domainome abundance scans (Beltran et al. 2025).

B1: Poly(rC)-binding protein 1, residues 278 to 350; numbered along this chain, Q15365 (parent)
chain: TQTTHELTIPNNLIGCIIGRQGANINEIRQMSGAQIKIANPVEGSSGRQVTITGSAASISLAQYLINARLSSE

- Variants of: B1
- experimental-details: abundance fitness (aPCA) (normalised: wild type 0, dead -1); higher = more abundant; growth selection in yeast, the domain comes from the species named
- measurement-context: Homo sapiens
Quick reference for abundance fitness among some variants
readout: abundance fitness

change=I38E endpoint_value=-0.679
change=I52V endpoint_value=-0.218
change=A62G endpoint_value=-0.622
change=K37D endpoint_value=-0.034
change=L13T endpoint_value=-0.181
change=Q49S endpoint_value=0.008
change=P41C endpoint_value=-0.09
change=G22I endpoint_value=-1.04
change=A62C endpoint_value=-0.768
change=Q49K endpoint_value=-0.049
change=V50K endpoint_value=-0.7
change=G47E endpoint_value=0.067
change=A56M endpoint_value=0.081
change=A34W endpoint_value=-0.759
change=N12F endpoint_value=-0.459
change=R29K endpoint_value=-0.18
change=I25V endpoint_value=-0.308
change=N24L endpoint_value=-0.134
change=Q49Y endpoint_value=-0.543
change=Q49I endpoint_value=-0.033
change=A57Y endpoint_value=-0.194
change=S55N endpoint_value=-0.017
change=Q2V endpoint_value=0.015
change=M31C endpoint_value=0.029
